STUDY TARGET: Recombinant purified human JAK3 (Homo sapiens)
Sequence (P52333 1-1124): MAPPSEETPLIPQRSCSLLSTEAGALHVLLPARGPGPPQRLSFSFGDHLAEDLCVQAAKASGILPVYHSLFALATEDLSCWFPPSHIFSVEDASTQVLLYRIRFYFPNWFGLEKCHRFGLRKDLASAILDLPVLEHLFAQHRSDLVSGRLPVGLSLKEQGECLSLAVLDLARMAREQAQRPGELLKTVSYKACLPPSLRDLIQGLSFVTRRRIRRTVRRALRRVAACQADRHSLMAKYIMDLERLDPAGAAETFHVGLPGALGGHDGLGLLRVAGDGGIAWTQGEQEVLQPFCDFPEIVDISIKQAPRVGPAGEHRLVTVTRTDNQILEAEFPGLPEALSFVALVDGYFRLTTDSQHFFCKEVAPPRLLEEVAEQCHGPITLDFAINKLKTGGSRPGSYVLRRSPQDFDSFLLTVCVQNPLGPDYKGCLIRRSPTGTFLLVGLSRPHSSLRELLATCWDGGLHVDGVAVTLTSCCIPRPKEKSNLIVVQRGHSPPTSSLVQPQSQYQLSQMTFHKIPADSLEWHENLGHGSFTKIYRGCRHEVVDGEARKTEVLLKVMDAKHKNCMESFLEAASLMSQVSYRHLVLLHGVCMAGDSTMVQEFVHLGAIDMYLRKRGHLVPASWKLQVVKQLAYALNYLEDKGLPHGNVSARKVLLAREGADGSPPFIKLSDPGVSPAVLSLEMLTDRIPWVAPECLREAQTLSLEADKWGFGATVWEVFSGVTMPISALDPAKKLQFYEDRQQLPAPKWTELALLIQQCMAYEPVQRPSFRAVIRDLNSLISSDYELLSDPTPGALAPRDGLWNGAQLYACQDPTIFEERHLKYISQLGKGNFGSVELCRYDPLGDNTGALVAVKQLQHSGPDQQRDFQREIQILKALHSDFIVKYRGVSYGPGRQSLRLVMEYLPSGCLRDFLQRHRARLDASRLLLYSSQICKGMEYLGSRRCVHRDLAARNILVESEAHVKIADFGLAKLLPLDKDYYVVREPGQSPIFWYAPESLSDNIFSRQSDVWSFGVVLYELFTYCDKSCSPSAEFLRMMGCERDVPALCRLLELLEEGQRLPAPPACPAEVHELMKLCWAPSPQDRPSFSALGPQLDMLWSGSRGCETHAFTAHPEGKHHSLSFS
EXPERIMENTAL PROTOCOL: JAK3 inhibitory activity test (ADP-Glo kinase assay)
CONDITION NOTES: ATP 5 uM, 1 hour incubation at 30° C.
Consider the following compounds and their measured log10(IC50) readings.
For clarity, the numbers are log10 values of IC50 expressed in nM.

Some compounds with recorded log10(IC50):
>>> readout_number("C=CC(=O)Nc1cccc(Oc2cccc3nc(Nc4ccc(OCCN(CC)CC)cc4)nn23)c1")
0.79
>>> readout_number("C=CC(=O)Nc1cccc(Oc2cccc3nc(Nc4cccc(-n5nc(C)cc5C)c4)nn23)c1")
1.02
>>> readout_number("C=CC(=O)Nc1cccc(Oc2cccc3nc(Nc4ccc(Oc5ccccc5)cc4)nn23)c1")
0.99
>>> readout_number("C=CC(=O)Nc1cccc(Oc2cccc3nc(Nc4ccc(N5CCOCC5)nc4)nn23)c1")
-0.15
>>> readout_number("C=CC(=O)Nc1cccc(Oc2cccc3nc(Nc4cnc5onc(C)c5c4)nn23)c1")
2.02
>>> readout_number("C=CC(=O)Nc1cccc(Oc2cccc3nc(Nc4ccc(S(=O)(=O)N5CCCCC5)cc4)nn23)c1")
0.48

(Q) GET log10(IC50) | system: Recombinant purified human JAK3 (Homo sapiens) | item: `C=CC(=O)Nc1cccc(Oc2cccc3nc(Nc4cnn(C)c4)nn23)c1`
(A) 0.04

(Q) GET log10(IC50) | system: Recombinant purified human JAK3 (Homo sapiens) | item: `C=CC(=O)Nc1cccc(Oc2cccc3nc(Nc4ccc(N5CCOCC5)cc4)nn23)c1`
(A) -0.22

(Q) GET log10(IC50) | system: Recombinant purified human JAK3 (Homo sapiens) | item: `C=CC(=O)Nc1cccc(Oc2cccc3nc(Nc4ccc(CN(C)C)cc4)nn23)c1`
(A) -0.15

(Q) GET log10(IC50) | system: Recombinant purified human JAK3 (Homo sapiens) | item: `C=CC(=O)Nc1ccc(F)c(Oc2cccc3nc(Nc4ccc5ncsc5c4)nn23)c1`
(A) 0.08

(Q) GET log10(IC50) | system: Recombinant purified human JAK3 (Homo sapiens) | item: `C=CC(=O)Nc1cccc(Oc2cccc3nc(Nc4cnn(CCN5CCOCC5)c4)nn23)c1`
(A) 0.71
